These measurements were taken from PubChem BioAssay (NCI).

- Test system: SF-539 CNS
- assay.notes: NCI-60 one-dose screen, 48 h
- measurement.parameters: 10 µM unless noted
About 83,000 compounds went through this panel and 20% of them were active in at least one assay; those are over-represented in the sample as a whole. Activity calls are given as the source filed them. How the source made its calls: active means growth percent below 10; inactive means the rest.
Lab note: assign the record to one of active, inactive

Example results:
molecule=COc1cc(OC)cc(-c2ccc(-c3ccc(C(=N)N)s3)s2)c1 classification=active
molecule=CCCCCCCCCCCCCCCCCC1=NCCN1CCO classification=inactive
molecule=c1coc(CNc2c3ccccc3nc3ccccc23)c1 classification=inactive
molecule="Nc1ncnc2c1N=C(c1ccc3c(c1)OCO3)CC(c1ccc(Cl)cc1)N2 (centres undefined)" classification=inactive
molecule=CC1=C(O)C(=O)CC1 classification=inactive

Consider the record given below.
Dear colleague, could you share the recorded outcome for CCC1=CC2CN(C1)Cc1c([nH]c3ccccc13)[C@@](C(=O)OC)(c1cc3c(cc1OC)N(C)[C@H]1[C@@](O)(C(=O)OC)[C@H](OC(C)=O)[C@]4(CC)C=CCN5CC[C@]31[C@@H]54)C2 (some centres undefined) when you have a moment? active
